Biological target: KRas WT (Homo sapiens, UniProt P01116)
Construct: Biotinylated KRas (corresponding to amino acids 1-169, produced at Accelegan Inc.); biotin (biotinylated); purchased Accelegan Inc
Sequence (P01116 1-169 isoform P01116-2): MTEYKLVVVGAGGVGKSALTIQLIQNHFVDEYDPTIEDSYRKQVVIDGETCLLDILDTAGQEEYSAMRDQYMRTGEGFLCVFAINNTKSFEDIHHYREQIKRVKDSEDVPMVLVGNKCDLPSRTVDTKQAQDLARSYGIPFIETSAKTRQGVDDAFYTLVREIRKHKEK
Test: KRas binding assay, TR-FRET displacement of Cy5 labelled tracer
Conditions: 60-minute incubation at room temperature, 1% DMSO, pH 7.5
parameter_measured: IC50 (nM)

Would you please look over these solved cases?
N#Cc1c(N)sc2c(F)ccc(-c3c(Cl)cc4c(N5CCC(C(=O)N6CCOCC6)CC5)nc(OC[C@@]56CCCN5C[C@H](F)C6)nc4c3F)c12: 5
O=C(Oc1c(F)cccc1F)[C@@H]1[C@@H]2CC[C@H]1CN(c1nc(OCC34CCCN3CCC4)nc3c(F)c(-c4cccc5cccc(F)c45)ncc13)C2: 17700
CN(CCCC(=O)Nc1ccccn1)c1nc(OC[C@@]23CCCN2C[C@H](F)C3)nc2c(F)c(-c3ccc(F)c4sc(N)c(C#N)c34)c(Cl)cc12: 14
O=C(C1CCN(c2nc(OCC34CCCN3CCC4)nc3c(F)c(-c4cccc5cccc(F)c45)ncc23)CC1)n1cccn1: 9270
Cc1ccn(C(=O)CCCN(C)c2nc(OC[C@@]34CCCN3C[C@H](F)C4)nc3c(F)c(-c4ccc(F)c5sc(N)c(C#N)c45)c(Cl)cc23)n1: 11

[P] O=C(Oc1ccc(F)c(F)c1)[C@@H]1[C@@H]2CC[C@H]1CN(c1nc(OCC34CCCN3CCC4)nc3c(F)c(-c4cccc5cccc(F)c45)ncc13)C2
[Q] Cc1ccn(C(=O)C2CCCN(c3nc(OC[C@@]45CCCN4C/C(=C\F)C5)nc4c(F)c(-c5ccc(F)c6sc(N)c(C#N)c56)c(Cl)cc34)CC2)n1 (some centres unmarked)
[R] CC(=O)N(C)C(=O)[C@H]1C[C@@H]2CN(c3nc(OC[C@@]45CCCN4C[C@H](F)C5)nc4c(F)c(-c5ccc(F)c6sc(N)c(C#N)c56)c(Cl)cc34)C[C@@H]2C1 (atropisomer, axis not shown; (aR))
[S] CCc1c(F)ccc2cc(O)cc(N3CCc4c(nc(OC[C@@]56CCCN5C[C@H](F)C6)nc4N4CCCCC(C(=O)n5ccc(C)n5)C4)C3)c12 (some centres unmarked)
[T] CCc1c(F)ccc2cc(O)cc(-c3ncc4c(N5CCC(C(=O)N(C)S(C)(=O)=O)CC5)nc(OC[C@@]56CCCN5C[C@H](F)C6)nc4c3F)c12
In this exercise, place the 5 molecules in ascending sequence of their recorded IC50. Use the labels to give the ranking in the order requested.
R, Q, S, T, P
(R: 10 nM, Q: 16 nM, S: 45 nM, T: 214 nM, P: 11800 nM)

====

Biological target: KRas G12S (Homo sapiens, UniProt P01116, G12S)
Construct: Biotinylated KRas (corresponding to amino acids 1-169, produced at Accelegan Inc.); biotin (biotinylated); purchased Accelegan Inc
Sequence (P01116 1-169 isoform P01116-2 G12S): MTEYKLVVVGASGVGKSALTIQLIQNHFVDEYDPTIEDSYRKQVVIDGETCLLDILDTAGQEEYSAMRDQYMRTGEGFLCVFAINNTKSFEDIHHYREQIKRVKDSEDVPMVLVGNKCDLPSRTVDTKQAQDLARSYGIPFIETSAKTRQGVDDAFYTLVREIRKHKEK
Assay: KRas binding assay, TR-FRET displacement of Cy5 labelled tracer
Conditions: 60-minute incubation at room temperature, 1% DMSO, pH 7.5
parameter_measured: IC50 (nM)

CCc1c(F)ccc2cc(O)cc(-c3ncc4c(N5CCC(C(=O)N(C)C(C)=O)C5)nc(OC[C@@]56CCCN5C[C@H](F)C6)nc4c3F)c12 (some centres unmarked): 89

[A] CCc1c(F)ccc2cc(O)cc(-c3ncc4c(NC[C@@H]5C[C@H]5C(=O)N(C)C(C)=O)nc(OC[C@@]56CCCN5C[C@H](F)C6)nc4c3F)c12
[B] CCc1c(F)ccc2cc(O)cc(N3CCc4c(nc(OC[C@@]56CCCN5C[C@H](F)C6)nc4N4CCC(C(=O)n5ccc(C)n5)CC4)C3)c12
[C] CCc1c(F)ccc2cc(O)cc(-c3ncc4c(N5C[C@H]6CC(C(=O)n7ccc(C)n7)C[C@@H]6C5)nc(OC[C@@]56CCCN5C[C@H](F)C6)nc4c3F)c12
[D] Cc1ccn(C(=O)[C@@H]2[C@@H]3CCN(c4nc(OC[C@@]56CCCN5C[C@H](F)C6)nc5c(F)c(-c6ccc(F)c7sc(N)c(C#N)c67)c(Cl)cc45)C[C@@H]32)n1
In this exercise, place the 4 compounds in ascending sequence of their recorded IC50. Use the labels to give the ranking in the order requested.
A, D, B, C
(A: 10 nM, D: 42 nM, B: 477 nM, C: 1800 nM)
